# systemUnderTest: T1, CD40 antigen (biotin-label-free, AcroBio Cat #: CDO-H5253) (UniProt P25942 21-193)
# T1 construct: Bought protein; A biotin-labeled form (CDO-H82E8) was used for panning only; also called CD40 antigens
# T1 sequence (P25942 21-193 limits assumed): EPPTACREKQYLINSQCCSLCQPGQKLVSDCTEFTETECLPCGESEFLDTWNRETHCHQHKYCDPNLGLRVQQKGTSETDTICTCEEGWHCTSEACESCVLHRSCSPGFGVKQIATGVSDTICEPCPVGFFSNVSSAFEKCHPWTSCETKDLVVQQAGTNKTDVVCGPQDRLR
# methodNotes: ELISA, CD40 antigen coated, anti-flag-HRP, OD405
quantityKind: ELISA reading (OD405)
Write it as a number; the unit OD405 goes unstated.

Solved entries (count: 3):
[[record]]
binder = "DDBK003-13 (Fab, V domains shown, Heavy-chain replacement clone of Selicrelumab; also expressed as KLC/IgG1) VH: EVQLVQSGPGLVRPSETLSLTCSASGGSVSSASDLWGWIRQAPGKGLEWIGNIYYLGKTDYNPSLGGRVSITMDKSKNQFSLRLSSVTAADTAMYYCAKRSTLPMRGFFVSWGQGTTVTVSS VL: DIQMTQSPSSVSASVGDRVTITCRASQGIYSWLAWYQQKPGKAPNLLIYTASTLQSGVPSRFSGSGSGTDFTLTISSLQPEDFATYYCQQANIFPLTFGGGTKVEIKR"
quantitykind = "ELISA reading"
numericvalue = 3.33

[[record]]
binder = "DDBK003-12 (Fab, V domains shown, Heavy-chain replacement clone of Selicrelumab; also expressed as KLC/IgG1) VH: QVQLQESGPGLVKPSETLSLTCNVSGYSITRGYFWGWIRQPPGKGLEWIGSIYQSGAARYNPSLQSRVTLSVDTSKNQFSLKLTSVTAADTAVYYCARDAATQVRGSWYNGYYFDPWGQGTLVTVSS VL: DIQMTQSPSSVSASVGDRVTITCRASQGIYSWLAWYQQKPGKAPNLLIYTASTLQSGVPSRFSGSGSGTDFTLTISSLQPEDFATYYCQQANIFPLTFGGGTKVEIKR"
quantitykind = "ELISA reading"
numericvalue = 3.22

[[record]]
binder = "DDBK003-16 (Fab, V domains shown, Light- and heavy-chain double replacement clone of Selicrelumab; also expressed as KLC/IgG1) VH: QVQLVESGAEVKKPGSSVKVSCKASGGTFSASAISWVRQAPGQGLEWMGGIFPILGSANYAQKFQGRVTITADESTSTAYMELSSLRSEDTAVYYCARDLAGYNYGFFGYWGRGTLVTVSS VL: DIQMTQSPSSVSASVGDRVTITCRASQGISSWLAWYQQKPGKAPKLLIYAASSLQSGVPSRFSGSGSGTDFTLTISSLQPEDFATYYCQQANSFPLTFGGGTKLEIKR"
quantitykind = "ELISA reading"
numericvalue = 1.93


Please turn your attention to the following entry.
The recorded ELISA reading for entry DDBK003-14 (Fab, V domains shown, Light- and heavy-chain double replacement clone of Selicrelumab; also expressed as KLC/IgG1) VH: QVQLVESGAEVKKPGSSVKVSCKASGGTFSASAISWVRQAPGQGLEWMGGIFPILGSANYAQKFQGRVTITADESTSTAYMELSSLRSEDTAVYYCARDLAGYNYGFFGYWGRGTLVTVSS VL: DIQMTQSPSSVSASVGDRVTITCRASQGINSWLAWYQQKPGRAPKLLIYTASTLQSGVPSRFSGSGSGTDFTLTISSLQPEDFATYYCQQAKSFPLTFGGGTKVEIKR equals 2.02
